biological target: HLA-DR DRB1*1302 (DR13) (Homo sapiens, UniProt P01903+P01911, A100E/A169T/K41T/L162R/M171V/P40S/Q125H/Q178H/Q39Y/Q99D/R42S/S66N/T262R/V115G/W38E/Y61H); experiment: biochemical; type: binding; conditions: DRBI *1302
Sequence (P01903 26-254 limits assumed, other chains not shown): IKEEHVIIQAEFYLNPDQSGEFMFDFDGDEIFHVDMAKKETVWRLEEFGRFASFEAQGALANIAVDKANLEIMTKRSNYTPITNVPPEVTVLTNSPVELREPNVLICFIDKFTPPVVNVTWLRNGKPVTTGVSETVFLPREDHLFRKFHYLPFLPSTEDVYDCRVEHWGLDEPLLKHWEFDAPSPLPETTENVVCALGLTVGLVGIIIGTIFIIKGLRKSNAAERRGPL
Recorded Endpoint: pIC50
Keep in mind that pIC50 stands for -log10 of concentration in molar terms.

*Q* Reported pIC50 for `CC[C@H](C)[C@H](NC(=O)[C@@H]1CCCN1C(=O)[C@H](Cc1c[nH]cn1)NC(=O)[C@@H](NC(=O)[C@@H]1CCCN1C(=O)[C@@H](NC(=O)[C@H](CO)NC(=O)[C@@H]1CCCN1C(=O)[C@H](CC(C)C)NC(=O)CNC(=O)[C@@H](NC(=O)[C@H](C)NC(=O)[C@H](CCC(=O)O)NC(=O)[C@H](C)N)C(C)C)[C@@H](C)CC)C(C)C)C(=O)NCC(=O)O` : what is it?
*A* 5.26

*Q* Also `CSCC[C@H](NC(=O)[C@@H]1CCCN1C(=O)[C@@H](N)CC(=O)O)C(=O)N[C@@H](Cc1ccccc1)C(=O)N[C@@H](CCCCN)C(=O)N[C@@H](Cc1ccc(O)cc1)C(=O)N[C@@H](Cc1c[nH]cn1)C(=O)N[C@@H](CC(C)C)C(=O)N[C@H](C(=O)N[C@H](C(=O)N[C@@H](C)C(=O)N[C@@H](CCC(N)=O)C(=O)N[C@H](C(=O)N[C@@H](CCCNC(=N)N)C(=O)NCC(=O)O)C(C)C)C(C)C)[C@@H](C)O` ?
*A* 6.16
